I'd appreciate it if you could supply TGI values for the items below.
Tested on: TK-10 renal
methodSummary: NCI tumour cell line growth inhibition, 48 h
Give bare numbers, in µM.

Worked set:
[[record]]
structuresmiles = "Cc1cc(N/N=C/c2nc(-c3ccccc3)oc2C)c2cc(Cl)ccc2n1"
observable = "TGI"
numericvalue = 3.29

[[record]]
structuresmiles = "C/C=C/[C@@H]1O[C@H](CC#C[Si](C)(C)C)[C@@]2(C=O)C(C)=CC[C@H](C(C)C)[C@@H]12"
observable = "TGI"
numericvalue = 31.5

[[record]]
structuresmiles = "Cc1nc(NC(=S)Nc2ccc(F)cc2)sc1C(=O)NNC(=S)Nc1ccc(F)cc1"
observable = "TGI"
numericvalue = 48.1


Here's the next entry for you.
Dear colleague, I am looking for the recorded TGI of the following molecule: CC[O-].CC[O-].O=Nc1ccc2cc([O-])ccc2c1.O=Nc1ccc2cc([O-])ccc2c1.[Ti+4]
8.17

----------
Tested on: DU-145 prostate
methodSummary: NCI tumour cell line growth inhibition, 48 h
I'd appreciate it if you could supply TGI values for the items below.
Numbers only, in µM.

[[record]]
structuresmiles = "O=C(/C=C/c1ccc(Cl)c(Cl)c1)CCN1CCN(CCC(=O)/C=C/c2ccc(Cl)c(Cl)c2)CC1"
numericvalue = 54.4


Dear colleague, I am looking for the recorded TGI of the following molecule: c1ccc2[nH]c(-c3ccc(OCCCCCOc4ccc(-c5nc6ccccc6[nH]5)cc4)cc3)nc2c1
3.41

----------
I'd appreciate it if you could supply TGI values for the items below.
System: HCT-116 colon
methodSummary: NCI tumour cell line growth inhibition, 48 h

Worked set:
[[record]]
compound = "c1ccc2c(Cc3c[nH]c4ccccc34)c[nH]c2c1"
measuredon = "HCT-116 colon"
observable = "TGI"
result = "31.2 µM"

[[record]]
compound = "Nc1ccccc1Sc1ccc(Cl)cc1"
measuredon = "HCT-116 colon"
observable = "TGI"
result = "> 100 µM"

[[record]]
compound = "Cc1cc2c(c(C#N)c1C)NC(=O)C(CC(=O)O)C2=O (stereo unspecified)"
measuredon = "HCT-116 colon"
observable = "TGI"
result = "> 100 µM"

[[record]]
compound = "COc1ccc(NC(C)=O)c(C(=O)CCNC(C)=O)c1"
measuredon = "HCT-116 colon"
observable = "TGI"
result = "> 100 µM"

[[record]]
compound = "CN(C)CC#Cc1cccc(C(=O)c2cnn(-c3ccc(F)cc3)c2N)c1"
measuredon = "HCT-116 colon"
observable = "TGI"
result = "> 25 µM"

[[record]]
compound = "CC(=O)/C=C/c1c[nH]c(=O)[nH]c1=O"
measuredon = "HCT-116 colon"
observable = "TGI"
result = "388 µM"

[[record]]
compound = "COC(=O)CC1(O)C(C=C(C)C)C(C(=O)OC)C(=O)C(C(=O)OC)C1C(=O)OC (stereo unspecified)"
measuredon = "HCT-116 colon"
observable = "TGI"
result = "> 100 µM"

[[record]]
compound = "Cn1c2c(c3ccccc31)CC(=O)N1CCCCC1C21OCCO1 (stereo unspecified)"
measuredon = "HCT-116 colon"
observable = "TGI"
result = "> 100 µM"


Give TGI for each of the items listed below.
1. CN1CCN(Cc2ccc(NC(=O)c3[nH]ncc3Nc3ncnc4c3CCC4)cc2)CC1
2. O=C(c1ccc(Cl)cc1)N(C(=S)N1CCN(c2ccccc2)CC1)c1ccccc1
3. Cc1c(Cl)cccc1NC(=O)c1sc2nc3c(cc2c1N)CCCCCC3

11.4 µM
> 100 µM
> 50 µM

Ref: PubChem BioAssay (NCI)
